target: RSV F protein of subtype A strain A2, on virus (respiratory syncytial virus subtype A …, UniProt P03420 26-574); assay: cell-based or functional assay
VALUE_KIND: Neut IC50 (ug/ml) subtype A

BINDER	VALUE_REPORTED
ADI-15593 (antibody, V domains shown, IgG; also called Antibody Number 160) VH: QVQLVQSGGGLVRPGGSLRLSCAASGFMFSTYSMNWLRTVPGKGLEWVSSISGSSSHIYYADSVKGRFTISRDNTKNSLYLQMNSLRPEDTALYYCARYFGDYSGLGNYYYYGMDVWGQGTTVTVSS VL: DIVMTQSPVSLPVTPGEPASISCRSSQSLLHSNGNNYLDWYLQRPGQSPQLLIYLGSNRASGVPDRFSGSGSGTDFTLRISRVEAEDVGVYYCMQALQTPRFGGGTKVEIK	> 10 µg/mL
ADI-15631 (antibody, V domains shown, IgG) VH: QVQLVESGGGLVQPGRSLRLSCAASGFTFDNYPMHWIRQAPGKGLEWVSGISWHSGSIGYADSVKGRFTISRDNAKNSLYLQMNSLRTEDTALYYCAKDAHYFDNSGHYYYGLDVWGQGTTVTVSS VL: EIVLTQSPATLSVSPGERATLSCRASQNIINNLAWYQQKPGQAPRLLISGASTRATGIPARFSGSGSGTEFTLTITSLQSEDFAVYYCQQYNNWPLTFGGGTKVDIK	0.099 µg/mL
ADI-15634 (antibody, V domains shown) VH: QVQLVQSGAEVKKPGSSVKVSCKASGGTFSSYAISWVRQAPGQGLEWMGGIIPIFGTVNYAQKFQGRVTITADESTSTAYMELSSLRSEDTAVYYCARDRSVTPRYYGMDVWGQGTTVTVSS VL: EIVMTQSPATLSLSPGERATLSCRASQSVSSYLAWYQQKPGQAPRLLIYDASNRATGIPARFSGSGSGTDFTLTISSLEPEDFAVYYCQHRSNWPPLTFGPGTKLEIK	> 10 µg/mL
